- measured.on: human GLP-1 receptor (human, UniProt P43220 24-463)
- measurement.description: cell-based or functional assay
Recorded hGLP1R GTPgS Rel EC50, one value per entry.
Write the number in pM without appending the unit.

{"binder": "XXEGTFTSDYSIXLDKKAQXAFIEYLIEGGPSSGAPPPS (not fully specified; D-Tyr1, Aib2, αMeL13, K17 conjugated to (2-[2-(2-Amino-ethoxy)-ethoxy]-acetyl)2-(γ-Glu)-CO-(CH2)18-CO2H, Aib20, C-terminal amide (NH2)) [Example 334]", "reading.unit": "pM", "val": 432}
{"binder": "FXEGTFTSDYSIXLDKKAQXAFIEYLIEAGPSSGAPPPS (Aib2, αMeL13, K17 conjugated to (2-[2-(2-Amino-ethoxy)-ethoxy]-acetyl)2-(γ-Glu)-CO-(CH2)16-CO2H, Aib20, C-terminal amide (NH2)) [Example 328]", "reading.unit": "pM", "val": 481}
{"binder": "XXEGTXTSDYSIXLDKKAQXAFIEYLIEGGPSSGAPPPS (not fully specified; D-Tyr1, Aib2, αMeF(2F)6, αMeL13, K17 conjugated to (2-[2-(2-Amino-ethoxy)-ethoxy]-acetyl)2-(γ-Glu)-CO-(CH2)18-CO2H, Aib20, C-terminal amide (NH2)) [Example 336]", "reading.unit": "pM", "val": 377}
{"binder": "XXEGTFTSDYSIXLDKKAQXAFIEXLIAGGPSSGAPPPS (D-Tyr1, Aib2, αMeL13, K17 conjugated to (2-[2-(2-Amino-ethoxy)-ethoxy]-acetyl)2-(γ-Glu)-CO-(CH2)18-CO2H, Aib20, αMeY25, C-terminal amide (NH2)) [Example 365]", "reading.unit": "pM", "val": 464}
{"binder": "FXEGTFTSDYSIXLDKKAQXAFIEYLIAGGPSSGAPPPS (not fully specified; Aib2, αMeL13, K17 conjugated to (2-[2-(2-Amino-ethoxy)-ethoxy]-acetyl)2-(γ-Glu)-CO-(CH2)18-CO2H, Aib20, C-terminal amide (NH2)) [Example 337]", "reading.unit": "pM", "val": 322}

## Task For the binder shown here, YXEGTXTSDYSILLDKKAQXAFIEYLIEGGPSSGAPPPS (Aib2, αMeF(2F)6, K17 conjugated to (2-[2-(2-Amino-ethoxy)-ethoxy]-acetyl)2-(γ-Glu)-CO-(CH2)18-CO2H, Aib20, C-terminal amide (NH2)) [Example 325] , give the reported hGLP1R GTPgS Rel EC50.
## Result 414

## Task Item under review: YXEGTFTSDYSIXLDEKAQXDFIEYLIAGGPSSGAPPPS (not fully specified; Aib2, αMeL13, K17 conjugated to (2-[2-(2-Amino-ethoxy)-ethoxy]-acetyl)2-(γ-Glu)-CO-(CH2)18-CO2H, Aib20, C-terminal amide (NH2)) [Example 344] . Reported hGLP1R GTPgS Rel EC50?
## Result 423

Provenance of the data: patent US20220048967A1
